# credit: paper PMC7252619

molecular target: CK1d (Homo sapiens, UniProt P48730); construct: purchased ReactionBiology; experiment: Kinase activity test (ReactionBiology), % enzyme activity relative to DMSO; type: biochemical; settings: CK1d; 10 uM; replicate Data 2; read-out: % Enzyme Activity (relative to DMSO controls), Data 2
Sequence (P48730 whole entry): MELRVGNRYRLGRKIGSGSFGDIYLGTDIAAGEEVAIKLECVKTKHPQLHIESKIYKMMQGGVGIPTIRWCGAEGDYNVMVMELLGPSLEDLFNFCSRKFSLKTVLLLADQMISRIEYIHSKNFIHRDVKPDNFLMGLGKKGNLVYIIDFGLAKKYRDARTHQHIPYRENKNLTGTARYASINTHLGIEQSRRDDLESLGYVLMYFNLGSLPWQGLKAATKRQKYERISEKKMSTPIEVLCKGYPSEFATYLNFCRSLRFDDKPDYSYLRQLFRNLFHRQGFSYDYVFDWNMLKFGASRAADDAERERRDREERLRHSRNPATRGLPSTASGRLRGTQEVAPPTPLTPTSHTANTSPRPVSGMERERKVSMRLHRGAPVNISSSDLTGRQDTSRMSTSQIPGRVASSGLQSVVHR
Decision: remaining activity at 10 µM beneath 90% gives MET; remaining activity at 10 µM meeting or exceeding 90% gives NOT MET.

// known answers, use as guide
molecule="Cc1ccc(C(=O)c2cc(O)c(O)c([N+](=O)[O-])c2)cc1 [Tolcapone, reference compound]" assigned_class=MET
molecule="Cc1cccc(C)c1OCC(=O)N[C@@H](Cc1ccccc1)[C@@H](O)C[C@H](Cc1ccccc1)NC(=O)[C@H](C(C)C)N1CCCNC1=O [Lopinavir, reference compound]" assigned_class="NOT MET"
molecule="Nc1ncnc2c1ncn2[C@@H]1O[C@H](CO)[C@@H](O)[C@H]1O [Adenosine, reference compound]" assigned_class=MET
molecule="N[C@@H](Cc1cc(I)c(Oc2cc(I)c(O)c(I)c2)c(I)c1)C(=O)O [Thyroxine, reference compound]" assigned_class="NOT MET"

State whether 90% exceeds remaining activity at 10 µM recorded for NC(=O)c1cccnc1 [Niacinamide, reference compound] .
NOT MET

For this molecule, is remaining activity at 10 µM lower than 90%? CC/C(=C(/CC)c1ccc(O)cc1)c1ccc(O)cc1 [Diethylstilbestrol, reference compound]
MET

For this molecule, is remaining activity at 10 µM lower than 90%? CC(C)(C)NC(=O)[C@@H]1C[C@@H]2CCCC[C@@H]2CN1C[C@@H](O)[C@H](Cc1ccccc1)NC(=O)[C@H](CC(N)=O)NC(=O)c1ccc2ccccc2n1 [Saquinavir, reference compound]
NOT MET

I'd appreciate it if you could check whether CC(=O)O[C@H]1C[C@@]2(C)[C@@H](C[C@@H](O)[C@H]3[C@@]4(C)CC[C@@H](O)[C@@H](C)[C@@H]4CC[C@@]32C)/C1=C(\CCC=C(C)C)C(=O)O has remaining activity at 10 µM smaller than 90%.
NOT MET

Strictly below 90%: is that where remaining activity at 10 µM of CCCc1nc(C)c2c(=O)[nH]c(-c3cc(S(=O)(=O)N4CCN(CC)CC4)ccc3OCC)nn12 sits?
NOT MET

Could you please tell me whether remaining activity at 10 µM recorded for C[C@]12CC[C@@H]3c4ccc(O)cc4CC[C@H]3[C@@H]1CC[C@@H]2O [Estradiol, reference compound] is less than 90%?
NOT MET

Could you please tell me whether remaining activity at 10 µM recorded for Oc1cc(Cl)ccc1Oc1ccc(Cl)cc1Cl [Triclosan, reference compound] is less than 90%?
NOT MET

Lab note: remaining activity at 10 µM threshold 90%. Does this molecule come in strictly under it? NCCCCCC(=O)O
NOT MET

Given O=C(O)c1ccccc1O , is recorded remaining activity at 10 µM strictly lower than 90%?
NOT MET

Problem: For the molecule CCN(CC)Cc1cc(Nc2ccnc3cc(Cl)ccc23)ccc1O [Amodiaquine, reference compound] , is remaining activity at 10 µM under 90%?
MET

====

molecular target: CK1d (Homo sapiens, UniProt P48730); construct: purchased ReactionBiology; experiment: Kinase activity test (ReactionBiology), % enzyme activity relative to DMSO; assay type: biochemical; conditions: CK1d; 1 uM; replicate Data 1; read-out: % Enzyme Activity (relative to DMSO controls), Data 1
test readout: remaining activity at 1 µM (%)
Answer in %, number only, no unit symbol.

Below: 4 molecules and their reported remaining activity at 1 µM.
molecule="Cc1nc(Nc2ncc(C(=O)Nc3c(C)cccc3Cl)s2)cc(N2CCN(CCO)CC2)n1 [Dasatinib, reference compound]" quantitative_result=95.4
molecule="CC/C(=C(/CC)c1ccc(O)cc1)c1ccc(O)cc1 [Diethylstilbestrol, reference compound]" quantitative_result=107
molecule="C[C@]12CC[C@@H]3c4ccc(O)cc4CC[C@H]3[C@@H]1CC[C@@H]2O [Estradiol, reference compound]" quantitative_result=99.6
molecule=CCCc1nc(C)c2c(=O)[nH]c(-c3cc(S(=O)(=O)N4CCN(CC)CC4)ccc3OCC)nn12 quantitative_result=100

Provide value of remaining activity at 1 µM for this record tested with CK1d (Homo sapiens, UniProt P48730): NC(=O)c1cccnc1 [Niacinamide, reference compound]
107
